Every entry's value here was drawn from the kinase profiling compilation of Christmann-Franck et al. (2016).

Target Or System: TNK1 (human) (UniProt Q13470)
Sequence (Q13470 whole entry, looked up): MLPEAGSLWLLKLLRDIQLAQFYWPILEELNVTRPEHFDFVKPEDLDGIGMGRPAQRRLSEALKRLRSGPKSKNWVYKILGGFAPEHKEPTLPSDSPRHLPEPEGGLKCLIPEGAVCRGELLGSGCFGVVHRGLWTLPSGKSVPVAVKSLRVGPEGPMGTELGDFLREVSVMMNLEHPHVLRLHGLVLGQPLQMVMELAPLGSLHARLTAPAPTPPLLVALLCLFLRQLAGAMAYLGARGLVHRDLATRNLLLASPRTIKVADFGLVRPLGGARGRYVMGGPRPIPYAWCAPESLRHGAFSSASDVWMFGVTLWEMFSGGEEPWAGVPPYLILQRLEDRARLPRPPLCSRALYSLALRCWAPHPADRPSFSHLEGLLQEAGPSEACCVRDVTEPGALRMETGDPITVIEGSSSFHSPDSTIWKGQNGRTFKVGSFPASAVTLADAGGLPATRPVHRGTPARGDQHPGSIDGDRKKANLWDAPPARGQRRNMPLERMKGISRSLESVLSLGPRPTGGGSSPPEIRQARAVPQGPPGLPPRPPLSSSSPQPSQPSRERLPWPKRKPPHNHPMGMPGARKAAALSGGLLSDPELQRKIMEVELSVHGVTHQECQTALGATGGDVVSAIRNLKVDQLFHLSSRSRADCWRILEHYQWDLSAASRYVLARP
Test Details: KINOMEscan competition binding
Applied Conditions: compound 10.0 µM
Assay Endpoint: kinase still bound, per cent of control
Please state the number and follow it with the unit.

For orientation, consider the following solved cases.
{"Smiles Input": "CCOc1cc(N2CCC(N3CCCCC3)CC2)ccc1Nc1nc(Nc2ccccc2S(=O)(=O)C(C)C)c2cn[nH]c2n1", "kinase still bound, per cent of control": "2.4%"}
{"Smiles Input": "CCN1CCN(Cc2ccc(NC(=O)c3ccc(C)c(Oc4ccnc5[nH]ccc45)c3)cc2C(F)(F)F)CC1", "kinase still bound, per cent of control": "0.35%"}
{"Smiles Input": "COc1cc(N2CCC(N3CCN(C)CC3)CC2)ccc1Nc1ncc(Cl)c(Nc2ccccc2S(=O)(=O)C(C)C)n1", "kinase still bound, per cent of control": "0.45%"}

Read the next record carefully.
Lab book: kinase still bound, per cent of control of CCN1CCN(Cc2ccc(NC(=O)c3ccc(C)c(/C=C/c4cnc(Nc5cc(N6CCNCC6)nc(C)n5)cn4)c3)cc2C(F)(F)F)CC1 noted as 13%
